Collected relative viability values appear next to each entry.
# Tested on: NCI-H23
# experimental details: relative viability (nuclei count vs DMSO), 5 days (fraction); higher = more cells survive
# protocol conditions: first compound 2.53 µM

Solved cases below.
compound	relative viability
Cc1cnc(-c2cnc(NCCNc3ccc(C#N)cn3)nc2-c2ccc(Cl)cc2Cl)[nH]1 + N=C(N)NC(=N)NCCc1ccccc1 [Phenformin] (partner 250 µM)	0.782
Cc1cnc(-c2cnc(NCCNc3ccc(C#N)cn3)nc2-c2ccc(Cl)cc2Cl)[nH]1 + COc1cccc2cc(-c3nc([C@H]4CC[C@H](C(=O)O)CC4)n4ncnc(N)c34)[nH]c12 [OSI-027] (partner 0.5 µM)	0.678

Now for another entry.
INPUT: Complete the entry with relative viability for Cc1cnc(-c2cnc(NCCNc3ccc(C#N)cn3)nc2-c2ccc(Cl)cc2Cl)[nH]1 + Cc1cc(Nc2cc(N3CCN(C)CC3)nc(Sc3ccc(NC(=O)C4CC4)cc3)n2)n[nH]1 [Tozasertib] (partner 0.1 µM)
OUTPUT: 0.259
